Ref: paper PMC6234480

systemUnderTest: catalytic domain of human MMP9 (human)
Examples of binders with documented IC50 of inhibition of human MMP9 activity (cleavage of 5-FAM/QXL 520 FRET peptide, 37°C) follow.
A complete answer gives the number followed by the unit.

Worked cases, IC50 of inhibition of human MMP9 activity (cleavage of 5-FAM/QXL 520 FRET peptide, 37°C) given:
TIMP3v82 (H55N/Q57T/K71N/E73T/D87N/K89T/R115T) (natural protein, additional glycosylation sites, site‐specific glycosylation confirmed by mass spec analysis (data not shown); endogenous glycosylation site at Asn184) CTCSPSHPQDAFCNSDIVIRAKVVGKKLVKEGPFGTLVYTIKQMKMYRGFTKMPNVTYIHTEASESLCGLNLTVNKYQYLLTGRVYNGTMYTGLCNFVERWDQLTLSQRKGLNYTYHLGCNCKIKSCYYLPCFVTSKNECLWTDMLSNFGYPGYQSKHYACIRQKGGYCSWYRGWAPPDKSIINATDP = 2.3 nM
TIMP3v2 (K22S/F34N TIMP3) (natural protein, additional glycosylation site (F34N), >95% occupancy by mass spectrometry; endogenous glycosylation site at Asn184) CTCSPSHPQDAFCNSDIVIRASVVGKKLVKEGPNGTLVYTIKQMKMYRGFTKMPHVQYIHTEASESLCGLKLEVNKYQYLLTGRVYDGKMYTGLCNFVERWDQLTLSQRKGLNYRYHLGCNCKIKSCYYLPCFVTSKNECLWTDMLSNFGYPGYQSKHYACIRQKGGYCSWYRGWAPPDKSIINATDP = 6.9 nM
N‐HSA (N‐TIMP3 fused with human serum albumin) (protein) CTCSPSHPQDAFCNSDIVIRAKVVGKKLVKEGPFGTLVYTIKQMKMYRGFTKMPHVQYIHTEASESLCGLKLEVNKYQYLLTGRVYDGKMYTGLCNFVERWDQLTLSQRKGLNYRYHLGC = 1.1 nM

# context switch: different binder, same IC50 of inhibition of human MMP9 activity (cleavage of 5-FAM/QXL 520 FRET peptide, 37°C)
[in] Tell me the measured IC50 of inhibition of human MMP9 activity (cleavage of 5-FAM/QXL 520 FRET peptide, 37°C) of v2‐Fc (TIMP3v2 fused with Fc) (Fc fusion, additional glycosylation site (F34N)) CTCSPSHPQDAFCNSDIVIRASVVGKKLVKEGPNGTLVYTIKQMKMYRGFTKMPHVQYIHTEASESLCGLKLEVNKYQYLLTGRVYDGKMYTGLCNFVERWDQLTLSQRKGLNYRYHLGCNCKIKSCYYLPCFVTSKNECLWTDMLSNFGYPGYQSKHYACIRQKGGYCSWYRGWAPPDKSIINATDP , please.
[out] 10 nM
